Documented delta across a set of binders
Molecular target: T1, human Dectin-1 (biosensor tests of Tables 3, 4A and 9; construct not stated) (human, UniProt Q9BXN2 66-247, limits assumed);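 further: Single-point dissociation rate (koff) fit for each variant binding domain, expressed as change versus the parental clone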
T1 construct: also called hDectin-1
T1 sequence (looked up): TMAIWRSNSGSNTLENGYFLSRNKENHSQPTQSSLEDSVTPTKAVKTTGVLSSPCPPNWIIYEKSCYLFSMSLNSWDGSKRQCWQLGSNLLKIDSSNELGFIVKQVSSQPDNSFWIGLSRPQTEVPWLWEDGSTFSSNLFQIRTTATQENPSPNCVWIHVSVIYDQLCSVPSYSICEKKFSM
Experiment: Octet
A number alone suffices; assume %.

{"BINDER": "2M24A.1.29 (Fab, V domains shown, Fab; also called 2M24.1.29) VH: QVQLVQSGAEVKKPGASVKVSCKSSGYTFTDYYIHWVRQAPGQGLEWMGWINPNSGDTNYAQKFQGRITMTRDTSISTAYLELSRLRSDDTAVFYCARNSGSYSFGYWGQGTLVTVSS VL: DIQMTQSPSSVSASVGDRVTITCRASQGISSWLAWYQQKPGKAPKLLIFGASSLQSGVPSRFSGSGSGTDFTLTVSSLQPEDFATYYCQQAYSFPFAFGPGTKVDIE", "READING": 23}

Okay, now this binder:
Task: delta for 2M24A.1.1 hFab (Fab, V domains shown, Fab; also called 2M24.1.1) VH: QVQLVQSGAEVKKPGASVKVSCKSSGYTFTAYYIHWVRQAPGQGLEWMGWINPNSGDTNYAQKFQGRITMTRDTSISTAYLELSRLRSDDTAVFYCARNSGSYSFGYWGQGTLVTVSS VL: DIQMTQSPSSVSASVGDRVTITCRASQGISSWLAWYQQKPGKAPKLLIFGASSLQSGVPSRFSGSGSGTDFTLTVSSLQPEDFATYYCQQAASFPFTFGPGTKVDIE ?
Output: 98
